These measurements were taken from patent EP4786492A1.

# target of assay: T1, human DLL3-his protein (human, UniProt Q9NYJ7 27-492)
# T1 construct: also called human DLL3 protein; DLL3 antigen protein; not shown: His tag
# T1 sequence: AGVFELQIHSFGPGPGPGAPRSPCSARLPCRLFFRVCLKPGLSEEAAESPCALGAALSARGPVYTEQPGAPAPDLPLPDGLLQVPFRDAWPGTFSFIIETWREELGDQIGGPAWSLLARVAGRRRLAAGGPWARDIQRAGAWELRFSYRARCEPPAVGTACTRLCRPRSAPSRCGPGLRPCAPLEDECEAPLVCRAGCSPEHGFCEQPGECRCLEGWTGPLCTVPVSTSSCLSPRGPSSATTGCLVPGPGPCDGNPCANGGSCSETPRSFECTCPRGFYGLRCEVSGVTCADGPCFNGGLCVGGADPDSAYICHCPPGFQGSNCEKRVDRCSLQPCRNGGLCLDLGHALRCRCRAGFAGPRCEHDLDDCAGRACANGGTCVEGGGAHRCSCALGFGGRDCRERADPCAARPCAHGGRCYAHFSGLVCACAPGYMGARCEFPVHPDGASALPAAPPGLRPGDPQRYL
# assay comment: ELISA

{"binder": "Hab006VL4VH2-hFc (Fc fusion, humanized mab006, VL-linker-VH-human IgG1 Fc; also called Hab006VL4VL2-hFc; not shown: linker; human IgG1 Fc fragment) scFv (part 1 of 2): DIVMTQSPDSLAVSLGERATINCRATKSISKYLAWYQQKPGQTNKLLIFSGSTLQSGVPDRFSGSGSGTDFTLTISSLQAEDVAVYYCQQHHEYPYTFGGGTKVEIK scFv (part 2 of 2): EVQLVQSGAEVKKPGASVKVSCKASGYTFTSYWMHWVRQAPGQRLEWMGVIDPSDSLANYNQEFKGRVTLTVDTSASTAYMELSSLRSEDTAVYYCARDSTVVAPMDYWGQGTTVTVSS", "binding result": "binds"}
{"binder": "mab008 scFv-hFc (Fc fusion, human-murine chimeric scFv-hFc, VL-linker-VH-human IgG1 Fc; not shown: linker; Fc fragment of human IgG1) scFv (part 1 of 2): DIVMTQSQKFMSTSVGDRVSITCKASQNVGTAVAWYQQKPGQSPKLLIFSASIRYTGVPDRFTGSGSGTDFTLTISNMQSEDLADYFCQQYSSSPYTFGGGTKLEIK scFv (part 2 of 2): EVQLQQSGPVLVKPGASVKMSCKASGYTFTDYYMNWVKRSHGKSLEWIGIINPYNGGTSYNQKFRGKATLTVDKSSNTAYMELNSLTSEDSAVYYCSRYDYDYDVEGAMDYWGQGTSVTVSS", "binding result": "binds"}
{"binder": "mab011 scFv-hFc (Fc fusion, human-murine chimeric scFv-hFc, VL-linker-VH-human IgG1 Fc; not shown: linker; Fc fragment of human IgG1) scFv (part 1 of 2): DIVLTQSPATLSVTPGDSVSLSCRASQSISNNLHWYQQKSHESPRLLIKYASQSISGIPSRFSGSGSGTDFTLSINSVETEDFGMYFCQQSNSWPWTFGGGTKLEIK scFv (part 2 of 2): EVQLQQSGPELVKPGASVKISCKASGYTFTDYYMNWVKQSHGKSLEWIGDISPNYGGTNYNQKFKGKATLTVDKSSSTACMELRSLTSEDSAVYYCTRSFYYYGTGYDWYFDVWGTGTTVTVSS", "binding result": "binds"}
